Assay: Membrane permeability in Caco-2 model
Assay type: in vitro ADME
Details: human, Caco-2, pH 7.4; Caco2, 10 μM, 90 min
Papp A→B at 90 min, 10 µM for assorted compounds
METRIC: Papp A→B at 90 min, 10 µM

INSERT INTO assay_data (compound, metric, result_value) VALUES
  ('C=CCn1c(=O)c2cnc(Nc3ccc(N4CCN(C)CC4)cc3)nc2n1-c1cccc(C(C)(C)O)n1 [AZD1775, reference compound]', 'Papp A→B at 90 min, 10 µM', '0.8 ×10⁻⁶ cm/s'),
  ('CC(C)NCC(O)COc1cccc2ccccc12 (centres unmarked)', 'Papp A→B at 90 min, 10 µM', '14.7 ×10⁻⁶ cm/s');

----------
Molecular target: CYP2C9 (Homo sapiens (Human))
Sequence (P11712 whole entry): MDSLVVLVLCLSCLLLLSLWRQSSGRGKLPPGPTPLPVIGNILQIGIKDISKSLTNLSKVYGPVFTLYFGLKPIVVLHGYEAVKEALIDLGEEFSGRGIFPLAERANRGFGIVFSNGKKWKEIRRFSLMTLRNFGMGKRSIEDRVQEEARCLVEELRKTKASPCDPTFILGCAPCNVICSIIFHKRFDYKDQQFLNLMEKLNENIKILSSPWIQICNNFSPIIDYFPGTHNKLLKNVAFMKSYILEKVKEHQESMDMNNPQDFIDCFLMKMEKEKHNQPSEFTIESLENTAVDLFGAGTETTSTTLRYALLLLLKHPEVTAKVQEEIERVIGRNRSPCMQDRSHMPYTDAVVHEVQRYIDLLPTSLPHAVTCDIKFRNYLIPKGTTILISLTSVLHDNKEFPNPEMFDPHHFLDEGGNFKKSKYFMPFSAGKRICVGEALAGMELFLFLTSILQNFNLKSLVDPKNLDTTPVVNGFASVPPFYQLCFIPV
Experiment: Cytochrome P450 inhibition (fluorescence), CYP2C9
Type: in vitro ADME
pIC50: −log10 of the molar value.
METRIC: pIC50

INSERT INTO results (molecule, result_value) VALUES
  ('C=CCn1c(=O)c2cnc(Nc3ccc(N4CCN(C)CC4)cc3)nc2n1-c1ccc2c(n1)C(C)(O)C1(CC1)C2 (stereo not shown)', '< 5.00');

----------
Assay: Saturated solubility in buffer at different pH
Type: physicochemical
Conditions: buffer solution, aqueous buffer, thermodynamic from solid; pH 6.5, 37° C., 24 h; read-out: Saturated solubility pH 6.5
METRIC: solubility at 24 h

INSERT INTO results (molecule, result_value) VALUES
  ('C=CCn1c(=O)c2cnc(Nc3ccc(N4CCN(C)CC4)cc3)nc2n1-c1cccc(C(C)(C)O)n1 [AZD1775, reference compound]', '50 µg/mL');

----------
Experiment: Pharmacokinetics on single dose in rats (iv and po)
Format: in vivo, male SD rats
Conditions: male, rat, plasma; SD rats, iv 1 mg/kg
METRIC: half-life (min)

INSERT INTO measurements (compound, result_value) VALUES
  ('C=CCn1c(=O)c2cnc(Nc3ccc(N4CCN(C)CC4)cc3)nc2n1-c1cccc(C(C)(C)O)n1 [AZD1775, reference compound]', 54.6);

----------
Assay: Metabolic stability in liver microsomes, human
Assay type: in vitro ADME
Details: read-out: T1/2 liver microsomes Human
METRIC: half-life at 1 µM

INSERT INTO measurements (compound, result_value) VALUES
  ('C=CCn1c(=O)c2cnc(Nc3ccc(N4CCN(C)CC4)cc3)nc2n1-c1cccc(C(C)(C)O)n1 [AZD1775, reference compound]', '38.1 min');

----------
Assay: Pharmacokinetics on single dose in rats (iv and po)
Format: in vivo, male SD rats
Conditions: male, rat, plasma; SD rats, iv 1 mg/kg
METRIC: AUC(0-t) (ng·h/mL)

INSERT INTO assay_data (compound, unit_string, result_value) VALUES
  ('C=CCn1c(=O)c2cnc(Nc3ccc(N4CCN(C)CC4)cc3)nc2n1-c1cccc(C(C)(C)O)n1 [AZD1775, reference compound]', 'ng·h/mL', 72.3);

----------
Molecular target: CYP1A2 (Homo sapiens (Human), UniProt P05177)
Sequence (P05177 whole entry): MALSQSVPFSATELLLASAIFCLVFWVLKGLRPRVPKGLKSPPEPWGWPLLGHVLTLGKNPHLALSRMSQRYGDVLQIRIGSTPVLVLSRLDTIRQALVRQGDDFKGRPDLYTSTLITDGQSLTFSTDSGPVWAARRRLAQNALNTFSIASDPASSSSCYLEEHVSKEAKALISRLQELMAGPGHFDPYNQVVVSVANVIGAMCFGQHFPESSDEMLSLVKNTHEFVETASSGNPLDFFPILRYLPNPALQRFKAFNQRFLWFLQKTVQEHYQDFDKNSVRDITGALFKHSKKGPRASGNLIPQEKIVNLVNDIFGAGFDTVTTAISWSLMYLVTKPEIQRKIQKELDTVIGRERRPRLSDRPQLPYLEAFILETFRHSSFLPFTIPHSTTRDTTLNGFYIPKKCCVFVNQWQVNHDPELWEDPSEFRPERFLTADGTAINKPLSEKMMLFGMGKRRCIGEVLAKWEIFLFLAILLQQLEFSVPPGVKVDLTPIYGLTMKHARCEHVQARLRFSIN
Assay: Cytochrome P450 inhibition (fluorescence), CYP1A2
Assay type: in vitro ADME
Conditions: read-out: IC50 CYP1A2
pIC50: −log10 of the molar value.
METRIC: pIC50

INSERT INTO results (molecule, metric, result_value) VALUES
  ('C=CCn1c(=O)c2cnc(Nc3ccc(N4CCN(C)CC4)cc3)nc2n1-c1cccc(C(C)(C)O)n1 [AZD1775, reference compound]', 'pIC50', '< 5.00'),
  ('C=CCn1c(=O)c2cnc(Nc3ccc(N4CCN(C)CC4)cc3)nc2n1-c1ccc2c(n1)C(C)(O)C1(CC1)C2 (centres unmarked)', 'pIC50', '< 5.00');
